Sourced from ChEMBL document CHEMBL1201862

# System: HOP-62
# Assay Procedure: NCI tumour cell line growth inhibition, 48 h
Activity calls are given as the source filed them. No stated cut-off is given here; in the data, active = GI50 up to about 1.1 µM and inactive = higher.
Outcome field: choose from Y for active, N for inactive

Please let me know the test result on file for C=CCOCn1ccc(N)nc1=O .
N

Please let me know the test result on file for CC(=O)N(CN1C(=O)CCC1C(=O)O)c1cccc(O)c1 (stereo unspecified) .
N

Please let me know the test result on file for Nc1nc(SCC(=O)c2ccccc2)nc2nc3c(c(-c4ccccc4)c12)CCCC3 .
N

Please let me know the test result on file for CCN(CC)CCC(=O)c1ccc(Cl)c(Cl)c1 .
N

Please let me know the test result on file for Cc1cnc2[nH]c(-c3cccc(Cl)c3)cc(=O)c2c1 .
Y

Please let me know the test result on file for O=C(/C=C1\N=C(c2ccccc2)N(c2ccc3c(c2)Sc2cc(N4C(=O)/C(=C/C(=O)/C=C/c5ccccc5)N=C4c4ccccc4)ccc2N3)C1=O)/C=C/c1ccccc1 .
N

Please let me know the test result on file for CCP(C)(C)=O .
N

Please let me know the test result on file for Cc1nc(Nc2ccccc2)sc1C(=O)NNc1ccc([N+](=O)[O-])cc1[N+](=O)[O-] .
N

Please let me know the test result on file for CC1(C)OCC(C2OC(On3nnc4ccc(Cl)cc43)C3OC(C)(C)OC23)O1 (stereo unspecified) .
N

Please let me know the test result on file for CC(C)(C)c1cc(CCC(=O)Nc2ccc(Cl)cc2)nc(NC#N)n1 .
N

Please let me know the test result on file for CC1(C)C2CCC1(C)C(OC(=O)/C=C/C(=O)OC1CC3CCC1(C)C3(C)C)C2 (stereo unspecified) .
N
